B1: TPR t1 (parent)
chain: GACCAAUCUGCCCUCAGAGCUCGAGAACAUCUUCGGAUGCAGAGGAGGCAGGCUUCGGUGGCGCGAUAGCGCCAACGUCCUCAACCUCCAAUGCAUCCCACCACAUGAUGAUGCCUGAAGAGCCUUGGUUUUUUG

- Variants of: B1
- method_description: polymerase ribozyme fitness, log enrichment relative to wild type (log ratio); higher = more active; in vitro selection for triplet polymerase activity
Rule: polymerase ribozyme fitness (log ratio) under -0.8 gives N, otherwise Y.

mut: G60A G120U
class_assignment: Y
//
mut: G93A U116C
class_assignment: N
//
mut: C11G G36U A43U G61A G63A C115U U125A U132A
class_assignment: N
//
mut: U7G C40U U54C C73A U106A
class_assignment: Y
//
mut: A108G
class_assignment: N
//
mut: C11U U14C U38G
class_assignment: N
//
mut: C76U C89G C98U
class_assignment: N
//
mut: G69U G110A A118C
class_assignment: Y
//
mut: A26G U109G
class_assignment: N
//
mut: C70A G120C
class_assignment: Y
//
mut: A2G U78A
class_assignment: Y
//
mut: C64U U133A
class_assignment: Y
//
mut: C56G A103U U109G
class_assignment: N
//
mut: A108G G122U
class_assignment: N
//
mut: G44A C70A C89A
class_assignment: N
//
mut: G42C C56U C124A
class_assignment: Y
//
mut: C40U G57C A90C A103U U112G
class_assignment: N
//
mut: G51A G128A
class_assignment: N
//
mut: G10A G52U G63A C70G
class_assignment: N
//
mut: U9A G47U G63C U130C
class_assignment: Y
//
mut: C11U C73U C114A C123U
class_assignment: N
//
mut: A74U C85U C94A
class_assignment: N
//
mut: C11U U129A
class_assignment: N

Entry source: the RNAGym collection of RNA variant scans (doi:10.1073/pnas.2313332121)
